System: DU-145
Experiment: NCI tumour cell line growth inhibition, 48 h
Active and inactive are the calls of the source. Rule as the data show it: active = GI50 up to about 1.1 µM and inactive = higher.
REPORTED_METRIC: GI50

>  <COMPOUND>
COc1ccc(/N=C(C)/C(C)=N/c2ccc(OC)cc2)cc1

>  <MEASURED_RESULT>
30.9 µM (inactive)

$$$$
>  <COMPOUND>
N#Cc1cc2c(cc1C#N)SCCSCCCSCCS2

>  <MEASURED_RESULT>
56.5 µM (inactive)

$$$$
>  <COMPOUND>
CNC(=S)N1CCN(C(C)=O)C1=S

>  <MEASURED_RESULT>
> 100 µM (inactive)

$$$$

Here's the next entry for you.
Q) Lookup: GI50 / DU-145 / CC(C)C1OC(/C=C/c2ccccc2)OCC1(C)C (centres undefined)
A) 37.2 µM (inactive)

====

Test system: HL-60
Assay: NCI tumour cell line growth inhibition, 48 h
Calls of active or inactive are those of the source. Cut-off read from the data, not from the text of the source: active = GI50 up to about 1.1 µM and inactive = higher.
REPORTED_METRIC: GI50

See these solved cases before continuing.
>  <COMPOUND>
COc1cc(NC=C2C(=O)OC(C)(C)OC2=O)c(OC)c(C)c1OC

>  <REPORTED_METRIC>
GI50

>  <MEASURED_RESULT>
> 100 µM (inactive)

$$$$
>  <COMPOUND>
Cn1cnc([N+](=O)[O-])c1Sc1nc(N)nc2c1ncn2C1OC(CO)C(O)C1O (stereo not given)

>  <REPORTED_METRIC>
GI50

>  <MEASURED_RESULT>
9.44 µM (inactive)

$$$$
>  <COMPOUND>
O=C(NCCCl)SCCO

>  <REPORTED_METRIC>
GI50

>  <MEASURED_RESULT>
> 100 µM (inactive)

$$$$
>  <COMPOUND>
Cn1c2ccccc2c(=O)c2c(O)cc3c(c21)C=CC1(CCCC1)O3

>  <REPORTED_METRIC>
GI50

>  <MEASURED_RESULT>
> 100 µM (inactive)

$$$$

Here is the next item to consider.
Q) I would be grateful if you could share the reported GI50 for "O=C(CCCl)NN=C1NCCN1" .
A) > 100 µM (inactive)

====

Test system: SK-MEL-5
Experiment: NCI tumour cell line growth inhibition, 48 h
Active and inactive are the calls of the source. Rule as the data show it: active = GI50 up to about 1.1 µM and inactive = higher.
REPORTED_METRIC: GI50

These recorded examples may help you get a feel for the data.
>  <COMPOUND>
CC(C)c1cccc(C(C)C)c1NC(=O)/C(Cc1nc2ccc(Cl)cc2nc1O)=N\NC(=O)C[N+](C)(C)C

>  <SYSTEM>
SK-MEL-5

>  <GI50>
> 100 µM (inactive)

$$$$
>  <COMPOUND>
CN1N=CSC12C(=O)N(c1ccccc1)C(=O)N2c1ccccc1 (stereo not drawn)

>  <SYSTEM>
SK-MEL-5

>  <GI50>
> 100 µM (inactive)

$$$$

Q) Requested read-out: GI50. Entry: "COc1ccc(/N=C(C)/C(C)=N/c2ccc(OC)cc2)cc1"
A) 64 µM (inactive)

====

System: HCT-116
Assay: NCI tumour cell line growth inhibition, 48 h
The source made the active and inactive calls. Rule as the data show it: active = GI50 up to about 1.1 µM and inactive = higher.
For each of the compounds below, state its GI50.

Example cases with answers are listed next.
>  <COMPOUND>
O=C(CCN1CCOCC1)Nc1ccc(F)cc1F

>  <REPORTED_METRIC>
GI50

>  <MEASURED_RESULT>
> 100 µM (inactive)

$$$$
>  <COMPOUND>
C[C@]12CCC[C@H](O)[C@H]1C[C@H](CO)CC2

>  <REPORTED_METRIC>
GI50

>  <MEASURED_RESULT>
> 100 µM (inactive)

$$$$
>  <COMPOUND>
COc1ccc(C2Oc3c(cccc3-c3c(-c4ccc(O)cc4)oc4cc(O)cc(O)c4c3=O)C(=O)C2O)cc1O (configuration not stated)

>  <REPORTED_METRIC>
GI50

>  <MEASURED_RESULT>
> 100 µM (inactive)

$$$$
>  <COMPOUND>
C=CCCN1CCc2c([nH]c3ccccc23)C1C(=O)O (configuration not stated)

>  <REPORTED_METRIC>
GI50

>  <MEASURED_RESULT>
> 100 µM (inactive)

$$$$
>  <COMPOUND>
CCOC(=O)CO/N=C\C1=CC(=O)C2CC1C2(C)C (configuration not stated)

>  <REPORTED_METRIC>
GI50

>  <MEASURED_RESULT>
> 100 µM (inactive)

$$$$
>  <COMPOUND>
CC(=O)C1=C(C)O[C@@H]2O[C@H](COCc3ccccc3)[C@@H](OCc3ccccc3)[C@H](O)[C@@H]2S1

>  <REPORTED_METRIC>
GI50

>  <MEASURED_RESULT>
16.4 µM (inactive)

$$$$
>  <COMPOUND>
CCC1=C(C)/C(=C/c2[nH]c(C(Br)Br)c(CC)c2C)N=C1C(Br)Br

>  <REPORTED_METRIC>
GI50

>  <MEASURED_RESULT>
23.8 µM (inactive)

$$$$
>  <COMPOUND>
C#CC(C)(C)OCCCCOc1cc(O)c2c(=O)c3ccccc3n(C)c2c1

>  <REPORTED_METRIC>
GI50

>  <MEASURED_RESULT>
> 100 µM (inactive)

$$$$

Batch request: GI50 for each of the following compounds.
1. CC/C=C/C(=O)CC(O)(C(F)(F)F)C(F)(F)F
2. O=C(Nc1nnc(-c2c(Cl)c(Cl)c(Cl)c(Cl)c2-c2nc3cc(C(=O)c4ccccc4)ccc3[nH]2)o1)c1ccccc1
3. CC(=O)OC1CC2Oc3ccc(C)cc3C(C)(O2)C1=O (configuration not stated)
4. Cn1c(=O)nc2n(-c3ccc(Cl)cc3)c3cc(Cl)ccc3nc-2c1=O
5. COc1ccc(/C=C2/S/C(=N\c3ccccc3)N(NC(=O)Cc3ccccc3)C2=O)cc1
6. O=P1(Oc2ccccc2)N=P(c2ccccc2)(c2ccccc2)C=C(c2ccc(Cl)cc2)N1 (configuration not stated)

A)
1. > 100 µM (inactive)
2. 23.3 µM (inactive)
3. > 100 µM (inactive)
4. 3.92 µM (inactive)
5. > 100 µM (inactive)
6. 7.23 µM (inactive)

Each compound below has a reported value. Please supply its GI50.
1. O=C(Nc1ccccc1[N+](=O)[O-])c1ccccc1
2. Cc1ccc(-c2nc3cc([N+](=O)[O-])ccc3[nH]2)cc1
3. COc1cc(/C=C/c2ccc(/C=C/c3cc(OC)c(OC)c(OC)c3)cc2)cc(OC)c1OC
4. N#Cc1ccc(Oc2nc3ccccc3nc2C(=O)O)cc1
5. Cc1cc2c(=O)cc(-c3ccc(C(=O)O)cc3)oc2c(C(=O)O)c1C
6. O=C1c2cccc3cccc(c23)C(=O)N1CCCN1CCN(CCCN2C(=O)c3cccc4cccc(c34)C2=O)CC1
7. CCOC(=O)C1=C(NC(C)(C)C)OCC1=O

A)
["> 100 µM (inactive)", "89.9 µM (inactive)", "28.7 µM (inactive)", "> 100 µM (inactive)", "> 100 µM (inactive)", "> 100 µM (inactive)", "> 100 µM (inactive)"]

Q) Fill in: GI50 of "Cc1ccc2c(c1)C/C(=C\c1ccccc1C(=O)O)C2=O" is ___
A) > 100 µM (inactive)
